# TARGET ENTITY: apelin receptor (Rattus norvegicus)
# Sequence (Q9JHG3 1-377): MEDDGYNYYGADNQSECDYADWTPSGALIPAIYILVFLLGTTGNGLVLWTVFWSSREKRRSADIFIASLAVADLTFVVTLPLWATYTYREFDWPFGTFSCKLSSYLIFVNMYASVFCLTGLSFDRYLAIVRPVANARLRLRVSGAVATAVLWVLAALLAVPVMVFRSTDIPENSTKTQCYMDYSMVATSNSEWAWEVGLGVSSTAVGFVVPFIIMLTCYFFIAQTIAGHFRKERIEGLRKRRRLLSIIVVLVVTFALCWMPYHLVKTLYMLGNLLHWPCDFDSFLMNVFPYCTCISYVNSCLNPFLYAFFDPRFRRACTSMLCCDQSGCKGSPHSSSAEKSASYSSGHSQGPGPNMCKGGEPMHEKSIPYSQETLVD
# EXPERIMENT SUMMARY: Competition radioligand binding, rat whole heart homogenate
pKi: −log10 of the molar value.
READOUT NAME: pKi

* CCC(CC)n1c(Cc2cccs2)nc2cc(C(=O)N[C@H](CC(=O)O)CC(C)C)ccc21 [CMF-019] | 8.49
